For each record, write down the corresponding IC50.
# Test system: SMMC-7721
# MEASUREMENT NOTES: Antiproliferative activity against human SMMC7721 cells after 72 hrs by MTT assay
# Type: functional, cell-based
# ASSAY CONDITIONS: SMMC-7721, 72 h
Numbers only, in µM.

Reference set (4 entries):
SMI: O=C(Nc1ccc(Oc2ccnc(-c3ncc(C(F)(F)F)[nH]3)c2)cc1)Nc1ccc2c(c1)OCO2
UNIT STRING: µM
IC50: 92.4
//
SMI: O=C(Nc1ccc(Oc2ccnc(-c3ncc(C(F)(F)F)[nH]3)c2)cc1)Nc1ccc(Cl)c(C(F)(F)F)c1
UNIT STRING: µM
IC50: 1.38
//
SMI: Cc1cc(NC(=O)Nc2ccc(Oc3ccnc(-c4ncc(C(F)(F)F)[nH]4)c3)cc2)no1
UNIT STRING: µM
IC50: 87.7
//
SMI: O=C(Nc1ccc(Oc2ccnc(-c3ncc(C(F)(F)F)[nH]3)c2)cc1)Nc1ccc(Br)cc1F
UNIT STRING: µM
IC50: 44.6

Look up IC50: O=C(Nc1ccc(Oc2ccnc(-c3ncc(C(F)(F)F)[nH]3)c2)cc1)Nc1ccc(F)c(Cl)c1
9.69

* * *

System: RAF proto-oncogene serine/threonine-protein kinase (Homo sapiens) | Read-out: IC50
Sequence (P04049 whole entry): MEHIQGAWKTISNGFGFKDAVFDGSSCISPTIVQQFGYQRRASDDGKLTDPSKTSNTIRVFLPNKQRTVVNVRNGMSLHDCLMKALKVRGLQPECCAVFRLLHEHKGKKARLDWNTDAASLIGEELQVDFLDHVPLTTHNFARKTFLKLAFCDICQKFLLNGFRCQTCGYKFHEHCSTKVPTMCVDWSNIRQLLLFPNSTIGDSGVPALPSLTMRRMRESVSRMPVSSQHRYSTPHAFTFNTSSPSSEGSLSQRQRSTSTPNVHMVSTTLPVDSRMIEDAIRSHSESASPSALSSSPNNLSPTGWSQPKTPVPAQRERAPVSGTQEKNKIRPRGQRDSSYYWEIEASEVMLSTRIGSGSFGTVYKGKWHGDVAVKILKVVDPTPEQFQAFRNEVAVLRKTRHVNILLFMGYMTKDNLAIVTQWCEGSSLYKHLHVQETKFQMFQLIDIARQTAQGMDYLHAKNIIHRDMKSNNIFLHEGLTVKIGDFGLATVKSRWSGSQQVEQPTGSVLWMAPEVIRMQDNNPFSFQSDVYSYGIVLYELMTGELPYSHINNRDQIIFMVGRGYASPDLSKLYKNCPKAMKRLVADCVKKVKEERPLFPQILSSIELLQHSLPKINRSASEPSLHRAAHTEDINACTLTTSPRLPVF
Give bare numbers, in nM.

SMI: O=C(Nc1ccc(Oc2ccnc(-c3ncc(C(F)(F)F)[nH]3)c2)cc1Cl)Nc1cc(C(F)(F)F)ccc1Cl
IC50 [nM]: 35.9
//
SMI: O=C(Nc1ccc(Cl)c(Cl)c1)Nc1ccc(Oc2ccnc(-c3ncc(C(F)(F)F)[nH]3)c2)cc1Cl
IC50 [nM]: 16.5
//
SMI: O=C(Nc1ccc(Oc2ccnc(-c3ncc(C(F)(F)F)[nH]3)c2)cc1)Nc1ccc(Cl)c(Cl)c1
IC50 [nM]: 13.1

List reported IC50 for each of these compounds:
1. O=C(Nc1ccc(Oc2ccnc(-c3ncc(C(F)(F)F)[nH]3)c2)cc1)Nc1ccc(F)c(Cl)c1
2. Cc1cccc(Cl)c1NC(=O)Nc1ccc(Oc2ccnc(-c3ncc(C(F)(F)F)[nH]3)c2)cc1

1: 69.2; 2: 120

* * *

# Test system: SMMC-7721
# MEASUREMENT NOTES: Antiproliferative activity against human SMMC7721 cells after 72 hrs by MTT assay
# Type: functional, cell-based
# ASSAY CONDITIONS: SMMC-7721, 72 h
REPORTED ENDPOINT: pIC50
Numbers only, as −log10 of the molar value.

Reference set (2 entries):
SMI: O=C(Nc1ccc(F)cc1)Nc1ccc(Oc2ccnc(-c3ncc(C(F)(F)F)[nH]3)c2)cc1
REPORTED MEASUREMENT: 4.44

SMI: O=C(Nc1ccc(Cl)c(C(F)(F)F)c1)Nc1ccc(Oc2ccnc(-c3ncc(C(F)(F)F)[nH]3)c2)cc1Cl
REPORTED MEASUREMENT: 5.19

List reported pIC50 for each of these compounds:
1. Cc1ccc(NC(=O)Nc2ccc(Oc3ccnc(-c4ncc(C(F)(F)F)[nH]4)c3)cc2Cl)cc1C(F)(F)F
2. O=C(Nc1ccc(Cl)c(Cl)c1)Nc1ccc(Oc2ccnc(-c3ncc(C(F)(F)F)[nH]3)c2)cc1Cl
3. O=C(Nc1ccc(F)c(C(F)(F)F)c1)Nc1ccc(Oc2ccnc(-c3ncc(C(F)(F)F)[nH]3)c2)cc1Cl
4. O=C(Nc1cccc(C(F)(F)F)c1)Nc1ccc(Oc2ccnc(-c3ncc(C(F)(F)F)[nH]3)c2)cc1Cl
5. O=C(Nc1ccc(Oc2ccnc(-c3ncc(C(F)(F)F)[nH]3)c2)cc1)Nc1cc(C(F)(F)F)ccc1Cl
6. O=C(Nc1ccc(Oc2ccnc(-c3ncc(C(F)(F)F)[nH]3)c2)cc1Cl)Nc1cc(C(F)(F)F)ccc1Cl
7. CNC(=O)c1cc(Oc2ccc(NC(=O)Nc3ccc(Cl)c(C(F)(F)F)c3)cc2)ccn1
8. Cc1cccc(Cl)c1NC(=O)Nc1ccc(Oc2ccnc(-c3ncc(C(F)(F)F)[nH]3)c2)cc1

1: 5.08; 2: 5.60; 3: 5.24; 4: 5.01; 5: 5.16; 6: 5.28; 7: 5.21; 8: 4.24

List reported pIC50 for each of these compounds:
1. O=C(Nc1ccc(Oc2ccnc(-c3ncc(C(F)(F)F)[nH]3)c2)cc1)Nc1ccc(Cl)c(Cl)c1
2. O=C(Nc1ccc(Oc2ccnc(-c3ncc(C(F)(F)F)[nH]3)c2)cc1)Nc1cccc(C(F)(F)F)c1

[5.51, 4.93]

Source: ChEMBL document CHEMBL2046400
